Test system: NCI/ADR-RES complex spheroid viability
Assay: Anticancer human tumor NCI/ADR-RES cell line growth inhibition; active = viability on the fitted dose curve at most 10% of control; inactive = the rest;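 also: spheroids exposed to compounds for 7 days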
Conditions: second compound 1 µM; first compound 1 µM
Excerpt: Multicellular complex tumor spheroid response to LSD1 Inhibitor Iadademstat in combination with a variety of drugs and investigational agents in selected tumor cell lines The current study was undertaken to assess response to LSD1 inhibitors in combination with standard-of-care drugs and investigational agents in solid tumor complex spheroid models as well as in the K-562 leukemia. […] Compounds. […] If the clinical Cmax for an agent had not been determined, the highest concentration tested was 10 microM. […]
Outcome (select one): True = active, False = inactive

Use the examples below as a reference point.
O=C(C=Cn1cnc(-c2cc(C(F)(F)F)cc(C(F)(F)F)c2)n1)NNc1cnccn1 + NC1CCC(NC2CC2c2ccccc2)CC1; True
CC1(C)CCC(CN2CCN(c3ccc(C(=O)NS(=O)(=O)c4ccc(NCC5CCOCC5)c([N+](=O)[O-])c4)c(Oc4cnc5[nH]ccc5c4)c3)CC2)=C(c2ccc(Cl)cc2)C1 + NC1CC1c1ccc(-c2cccc(O)c2)cc1; False

Query: Lab log entry: Nc1ncn(C2CC(O)C(CO)O2)c(=O)n1 (stereo unspecified) + NC1CC1c1ccc(-c2cccc(O)c2)cc1 — outcome as called in the assay?
Result: False

Query: Try the molecule CC1COCCN1c1cc(C2(S(C)(=N)=O)CC2)nc(-c2ccnc3[nH]ccc23)n1 (stereo unspecified) + NC1CCC(NC2CC2c2ccccc2)CC1
Result: False

Query: Another molecule to check: CC(C)c1c(-c2ccccc2)nc2c(C#N)c[nH]n2c1=O + NC1CC1c1ccc(-c2cccc(O)c2)cc1
Result: False

Query: And then CC1COCCN1c1cc(C2(S(C)(=N)=O)CC2)nc(-c2ccnc3[nH]ccc23)n1 (stereo unspecified) + NC1CC1c1ccc(-c2cccc(O)c2)cc1 , what is it?
Result: False
